TESTED_ON: Recombinant human liver GK1 (GST-GK) (Homo sapiens, UniProt P35557)
Construct: made in house; host or cells: E. coli
Sequence (P35557 1-466 isoform P35557-2): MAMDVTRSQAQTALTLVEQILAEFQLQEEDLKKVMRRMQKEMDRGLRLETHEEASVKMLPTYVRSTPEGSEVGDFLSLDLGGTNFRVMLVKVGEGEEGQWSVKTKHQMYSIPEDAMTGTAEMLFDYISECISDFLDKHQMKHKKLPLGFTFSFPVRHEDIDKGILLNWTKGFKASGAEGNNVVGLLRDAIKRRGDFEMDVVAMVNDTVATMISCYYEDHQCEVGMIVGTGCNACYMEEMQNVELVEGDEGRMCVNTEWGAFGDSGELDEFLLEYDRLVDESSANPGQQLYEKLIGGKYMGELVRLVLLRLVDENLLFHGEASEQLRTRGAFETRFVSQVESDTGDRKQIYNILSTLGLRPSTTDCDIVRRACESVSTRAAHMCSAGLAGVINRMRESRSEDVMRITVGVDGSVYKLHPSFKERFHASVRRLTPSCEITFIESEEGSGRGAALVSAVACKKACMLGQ
TEST_METHOD_NOTES: In vitro glucokinase activity (G6PDH-coupled NADH assay)
Assay type: biochemical
CONDITION_CONTEXT: 30° C., 5 mM D-glucose, 10% DMSO
Protocol: Glucokinase In Vitro Assay Protocol: Glucokinase (GK) was assayed by coupling the production of glucose-6-phosphate to the generation of NADH with glucose-6-phosphate dehydrogenase (G6PDH, 0.75-1 kunits/mg; Boehringer Mannheim, Indianapolis, Ind.) from Leuconostoc mesenteroides as the coupling enzyme (Scheme 2). […] After addition of enzyme, the increase in optical density (OD) at 340 nm was monitored spectrophotometrically to determine the rate of change (OD340 per min). […]
Give measured SC1.5 (concentration of activator that produced a 50% increase in the activity of GK) for each item. Keep answers brief.
# unit: µM | format: bare number

(Q) Quick one: SC1.5 (concentration of activator that produced a 50% increase in the activity of GK) for CCO[C@@H](C)C[C@@H](C(=O)Nc1ccn(CC(C)(C)O)n1)N1CC(Oc2cccc(Cl)c2Cl)=CC1=O [Example 95] ?
(A) 0.703

(Q) Quick one: SC1.5 (concentration of activator that produced a 50% increase in the activity of GK) for COC1=CC(=O)N([C@@H](CC2CCCC2)C(=O)Nc2ccn(CC(C)(C)OC)n2)C1 [Example 5] ?
(A) 3.15

(Q) Quick one: SC1.5 (concentration of activator that produced a 50% increase in the activity of GK) for CC(C)(O)Cn1ccc(NC(=O)[C@H](CC2CCCC2)N2CC(OC3CCCCC3)=CC2=O)n1 [Example 17] ?
(A) 0.366

(Q) Quick one: SC1.5 (concentration of activator that produced a 50% increase in the activity of GK) for CC(C)(O)Cn1ccc(NC(=O)[C@H](CC2CCCCC2)N2CC(Oc3c(F)ccc(Cl)c3F)=CC2=O)n1 [Example 72] ?
(A) 0.024

(Q) Quick one: SC1.5 (concentration of activator that produced a 50% increase in the activity of GK) for CCOc1ccc(F)c(OC2=CC(=O)N([C@@H](CC(C)C)C(=O)Nc3ccn(CC(C)(C)O)n3)C2)c1F [Example 260] ?
(A) 0.024

(Q) Quick one: SC1.5 (concentration of activator that produced a 50% increase in the activity of GK) for CC(C)C[C@@H](C(=O)Nc1ccn(C[C@@H](N)CO)n1)N1CC(Oc2ccccc2Cl)=CC1=O [Example 180] ?
(A) 6.393

(Q) Quick one: SC1.5 (concentration of activator that produced a 50% increase in the activity of GK) for O=C(Nc1ccn(C[C@@H](O)CO)n1)[C@@H](CC1CCC1)N1CC(Oc2ccccc2Cl)=CC1=O [Example 177] ?
(A) 4.725

* * *

TESTED_ON: Recombinant human liver GK1 (GST-GK) (Homo sapiens, UniProt P35557)
Construct: made in house; host or cells: E. coli
TEST_METHOD_NOTES: In vitro glucokinase activity (G6PDH-coupled NADH assay)
Format: biochemical
CONDITION_CONTEXT: 30° C., 5 mM D-glucose, 10% DMSO
RESULT_TYPE: SC1.5 (concentration of activator that produced a 50% increase in the activity of GK) (µM)
# unit: µM | format: bare number

(Q) # get_value(readout= SC1.5 (concentration of activator that produced a 50% increase in the activity of GK), system= Recombinant human liver GK1 (GST-GK) (Homo sapiens, UniProt P35557)) for CCOc1cccc(OC2=CC(=O)N([C@@H](CC(C)C)C(=O)Nc3cnc([C@H]4COC(C)(C)O4)cn3)C2)c1F
(A) 0.2

(Q) # get_value(readout= SC1.5 (concentration of activator that produced a 50% increase in the activity of GK), system= Recombinant human liver GK1 (GST-GK) (Homo sapiens, UniProt P35557)) for Cc1cccc(OC2=CC(=O)N([C@@H](CC3CCCCC3)C(=O)Nc3ccn(CC(C)(C)O)n3)C2)c1
(A) 0.018

(Q) # get_value(readout= SC1.5 (concentration of activator that produced a 50% increase in the activity of GK), system= Recombinant human liver GK1 (GST-GK) (Homo sapiens, UniProt P35557)) for COC(=O)c1ccc(NC(=O)[C@H](CC2CCCCC2)N2CC(Oc3c(F)cccc3Cl)=CC2=O)nc1
(A) 0.047

(Q) # get_value(readout= SC1.5 (concentration of activator that produced a 50% increase in the activity of GK), system= Recombinant human liver GK1 (GST-GK) (Homo sapiens, UniProt P35557)) for O=C(Nc1ccn(CCO)n1)[C@H](CC1CCCC1)N1CC(Oc2c(F)cccc2F)=CC1=O
(A) 0.05

* * *

TESTED_ON: Recombinant human liver GK1 (GST-GK) (Homo sapiens)
Construct: made in house; host or cells: E. coli
TEST_METHOD_NOTES: In vitro glucokinase activity (G6PDH-coupled NADH assay)
Format: biochemical
CONDITION_CONTEXT: 30° C., 5 mM D-glucose, 10% DMSO
Give measured SC1.5 (concentration of activator that produced a 50% increase in the activity of GK) for each item. Keep answers brief.
# unit: µM | format: bare number

(Q) Quick one: SC1.5 (concentration of activator that produced a 50% increase in the activity of GK) for O=C(Nc1ccn(C[C@@H](O)CO)n1)[C@H](CC1CCC1)N1CC(Oc2ccccc2Cl)=CC1=O ?
(A) 0.05

(Q) Quick one: SC1.5 (concentration of activator that produced a 50% increase in the activity of GK) for CCOc1ccccc1OC1=CC(=O)N([C@@H](CC(C)C)C(=O)Nc2ccn(C[C@@H]3COC(C)(C)O3)n2)C1 ?
(A) 8.055

(Q) Quick one: SC1.5 (concentration of activator that produced a 50% increase in the activity of GK) for COc1cccc(OC2=CC(=O)N([C@@H](CC3CCCCC3)C(=O)Nc3ccn(CC(C)(C)O)n3)C2)c1 ?
(A) 0.012

(Q) Quick one: SC1.5 (concentration of activator that produced a 50% increase in the activity of GK) for COc1cccc(OC2=CC(=O)N([C@@H](CC3CCCCC3)C(=O)Nc3ccn(CC(C)(C)O)n3)C2)c1OC ?
(A) 0.07

(Q) Quick one: SC1.5 (concentration of activator that produced a 50% increase in the activity of GK) for CC1(C)OC[C@@H](Cn2ccc(NC(=O)[C@H](Cc3ccccc3Cl)N3CC(Oc4ccccc4Cl)=CC3=O)n2)O1 ?
(A) 1.629

(Q) Quick one: SC1.5 (concentration of activator that produced a 50% increase in the activity of GK) for O=C(Nc1ccn(C[C@@H](O)CO)n1)[C@H](Cc1ccc(F)cc1)N1CC(Oc2ccccc2Cl)=CC1=O ?
(A) 0.771

(Q) Quick one: SC1.5 (concentration of activator that produced a 50% increase in the activity of GK) for CCOc1ccc(F)c(OC2=CC(=O)N([C@@H](CC(C)C)C(=O)Nc3ccn(C[C@@H]4COC(C)(C)O4)n3)C2)c1F ?
(A) 0.22

(Q) Quick one: SC1.5 (concentration of activator that produced a 50% increase in the activity of GK) for CC(C)C[C@@H](C(=O)Nc1ccn(C[C@@H](O)CO)n1)N1CC(Oc2ccc3c(c2)OCCO3)=CC1=O ?
(A) 0.437

(Q) Quick one: SC1.5 (concentration of activator that produced a 50% increase in the activity of GK) for CC(C)(O)Cn1ccc(NC(=O)[C@H](CC2CCCCC2)N2CC(Nc3ccc(Cl)c(Cl)c3)=CC2=O)n1 ?
(A) 5.931

(Q) Quick one: SC1.5 (concentration of activator that produced a 50% increase in the activity of GK) for O=C(Nc1ccn(C[C@@H](O)CO)n1)C(CC1CCOCC1)N1CC(Oc2c(F)cccc2F)=CC1=O (some centres unmarked) ?
(A) 0.165

(Q) Quick one: SC1.5 (concentration of activator that produced a 50% increase in the activity of GK) for CC(C)C[C@@H](C(=O)Nc1ccn(C[C@@H]2COC(C)(C)O2)n1)N1CC(Oc2ccccc2Br)=CC1=O ?
(A) 2.013

(Q) Quick one: SC1.5 (concentration of activator that produced a 50% increase in the activity of GK) for COc1ccc(OC2=CC(=O)N([C@@H](CC(C)C)C(=O)Nc3ccn(C[C@@H](O)CO)n3)C2)cc1 ?
(A) 0.747

(Q) Quick one: SC1.5 (concentration of activator that produced a 50% increase in the activity of GK) for CC(C)(O)Cn1ccc(NC(=O)[C@H](CC2CCCCC2)N2CC(Oc3ccc(Cl)cc3Cl)=CC2=O)n1 ?
(A) 0.012

(Q) Quick one: SC1.5 (concentration of activator that produced a 50% increase in the activity of GK) for CC(C)C[C@@H](C(=O)Nc1cnccn1)N1CC(Oc2cccc(C(O)CO)c2F)=CC1=O (some centres unmarked) ?
(A) 1.717
